tested on: MCF7 breast; test: NCI tumour cell line growth inhibition, 48 h; in the data active = GI50 below about 0.43 µM; inactive = the rest
Classes used: active, inactive

compound | discreteLabel
COc1ccc2c(c1)c(=O)oc1cc(OC/C(=N\O)c3ccc(F)cc3)ccc12 | inactive
O=C(Nc1ncc(Cc2ccc(Cl)cc2)s1)c1ccc2c(c1)OCCO2 | active
Cc1cccc2c(=O)c3c(sc12)c(NCCN)nc1ccccc13 | inactive
O=CNc1ccc2c(c1)Cc1cc([N+](=O)[O-])ccc1-2 | inactive
O=C(Nc1cccc(-n2cc(-c3ccncc3)c(-c3ccc(O)c(Cl)c3)n2)c1)Nc1ccc(Cl)c(C(F)(F)F)c1 | inactive
O=C(O)c1cn(C2CC2)c2cc(N3CCN(C(=O)Nc4nc(-c5ccc(Cl)cc5)cs4)CC3)c(F)cc2c1=O | inactive
Cc1ccc(S(=O)(=O)N2C/C(=C\c3cc(F)cc(F)c3)C(=O)/C(=C/c3cc(F)cc(F)c3)C2)cc1 | active
CSc1ccc2c(c1)C(=O)c1c-2n(CCCN=[N+]=[N-])c(=O)c2cc([N+](=O)[O-])ccc12 | inactive
O=C(Nc1cc(Cl)cc(Cl)c1)c1ccc(NC2=C(Cl)C(=O)N(Cc3ccccc3)C2=O)cc1 | inactive

###

test system: OVCAR-5 ovarian; test: NCI tumour cell line growth inhibition, 48 h

molecule | TGI
COc1ccc(-n2nnnc2C2(Nc3ccccc3)CCN(Cc3ccccc3)CC2)cc1 | 48.8 µM
N#Cc1ccccc1/C=N/O | > 100 µM
O=C(Nc1cccc2ccccc12)c1cc2ccccc2cc1O | 13 µM
CC1CC(=O)NC2CC1C2(C)C (stereo not given) | > 100 µM
O=C1c2cccnc2-c2nccc3ccnc1c23 | 4.2 µM
CC(C)=CCC/C(C)=C/CC/C(C)=C/CC/C(C=O)=C/CC/C(C)=C\CC/C(C)=C/CC/C(C)=C/CC/C(C)=C/CC1=CC(=O)C=CC1=O | > 100 µM
CCOC(=O)c1cc(C2(OC)CCN(Cc3ccccc3)C2=O)c(-c2cc(C)no2)[nH]1 (stereo not given) | > 100 µM
C/C(CN1C(=O)c2ccccc2C1=O)=N\NS(C)(=O)=O | > 100 µM
CC(C)[C@H](NC(=O)[C@@H](O)[C@H](N)Cc1ccccc1)C(=O)N[C@@H](Cc1ccccc1)C(=O)O | > 100 µM
CCC(C)(C)c1ccc(Oc2cccc(C(=O)O)c2)cc1 | > 100 µM

###

test system: CAKI-1 renal; experiment: NCI tumour cell line growth inhibition, 48 h
List of TGI values.
measurementLabel: TGI

compound | measurementLabel | recordedMeasurement
Cc1nn(C(=O)c2ccncc2)c2c1C(c1ccccc1O)SC(N)=N2 (centres undefined) | TGI | > 10 µM
COC(=O)[C@]1(C)CCC[C@]2(C)C3CC4OOC3(C=C4C(C)C)CCC21 (some centres undefined) | TGI | 62.3 µM
COc1cc([C@@H]2c3cc4c(cc3[C@@H](NC(=O)c3ccc([N+](=O)[O-])cc3)C3COC(=O)[C@@H]32)OCO4)cc(OC)c1O (some centres undefined) | TGI | 8.42 µM
Cn1c(=O)c2c(nc3sc4ncccc4c(=O)n32)n(C)c1=O | TGI | > 100 µM
Cc1c(C)c(C)c(CSC(=N)N)c(C)c1C | TGI | 25.8 µM
COc1ccc(C2S/C(=C\c3cccc([N+](=O)[O-])c3)C(=O)N2NC(=O)Cc2ccccc2)cc1 (centres undefined) | TGI | > 100 µM
Cc1ccc(C(=O)Nc2ccc(CP(=O)(O)O)cc2)cc1NC(=O)Nc1cc(C(=O)Nc2ccc(CP(=O)(O)O)cc2)ccc1C | TGI | > 100 µM
CN(C)N1C(=O)CC2(CCN(CCCC(=O)c3ccc(F)cc3)CC2)C1=O | TGI | > 100 µM
COc1ccc(-c2oncc2-c2cc(OC)c3c(c2)OCO3)cc1 | TGI | 31.2 µM

###

tested on: SNB-75 CNS; experiment: NCI tumour cell line growth inhibition, 48 h
TGI reference

molecule | TGI
C/C(CC(=O)Nc1ccc([N+](=O)[O-])cc1)=N/N=C(N)N | > 100 µM
CCOC(=O)c1c2c(n3cccc(F)c13)C(=O)c1ncccc1C2=O | 64.9 µM
COC(=O)/C(Cl)=C1/CC1COCc1ccccc1 (stereo not given) | > 100 µM
COc1cc(CNC(=O)CCCCCCCCCCSSCCCCCCCCCCC(=O)NCc2ccc(O)c(OC)c2)ccc1O | > 10 µM
CC1(CC(=O)OC(C#C[Si](C)(C)C)Cc2ccccc2)OCCO1 (stereo not given) | > 100 µM

###

test system: HOP-92 NSCLC; test: NCI tumour cell line growth inhibition, 48 h

compound | targetEntity | TGI
O=c1[nH][nH]c(=S)c(=O)[nH]1 | HOP-92 NSCLC | > 100 µM
COC(=O)CCC(=O)C(C#N)c1ccc(Cl)cc1Cl (stereo not given) | HOP-92 NSCLC | > 100 µM
COc1ccc(C2C3=C(CCCC3=O)N(c3ccccc3)C3=C2C(=O)CCC3)cc1 | HOP-92 NSCLC | > 100 µM
CC[C@]12C=CCN3CCC4(c5cc(N=Nc6ccc([N+](=O)[O-])cc6)c(OC)cc5N(C)[C@H]4[C@@](O)(C(=O)OC)[C@@H]1OC(C)=O)[C@@H]32 (stereo not given in full) | HOP-92 NSCLC | 8.62 µM
O=C(CCc1cc(-c2ccco2)n(-c2ccc([N+](=O)[O-])cc2[N+](=O)[O-])n1)Nc1ccccc1 | HOP-92 NSCLC | > 100 µM

###

system: SNB-19 CNS; test: NCI tumour cell line growth inhibition, 48 h; in the data active means GI50 below about 0.43 µM; inactive means the rest
Possible outcomes: Yes for active, No for inactive

compound | discreteLabel
CC1=C(C(=O)Nc2ccc(Cl)c(Cl)c2)C(c2cccc(O)c2)NC(=S)N1 (stereo unspecified) | No
O=C(CN/C=C\C(=O)c1cc(Cl)ccc1Cl)c1ccccc1 | No
Cc1ccc(S(=O)(=O)C2=C3C(=C(c4ccccc4)c4ccccc43)CN(S(=O)(=O)c3ccc(C)cc3)C2)cc1 | No
Cc1ccc(S(=O)(=O)N2C/C(=C\c3cc(F)cc(F)c3)C(=O)/C(=C/c3cc(F)cc(F)c3)C2)cc1 | Yes
C(#Cc1ccccc1C#Cc1ccccn1)c1ccc(OCCCCCCOc2ccc(C#Cc3ccccc3C#Cc3ccccn3)cc2)cc1 | No
C#CCOc1c(OC)cc(C(=O)/C(C)=C/c2cccc(N=[N+]=[N-])c2)cc1OC | Yes
Cc1cc(Cl)ccc1Nc1nc(C(F)(F)F)ccc1C(=O)N/N=C/c1c(Cl)cccc1Cl | No
N=C(N)c1ccc(-c2ccc(-c3ccco3)o2)cc1F | No
CCC1=C[C@H]2CN(CCc3c([nH]c4ccccc34)[C@@](C(=O)OC)(c3cc4c(cc3OC)N(C)[C@H]3[C@@](O)(C(=O)OC)[C@H](OC(C)=O)[C@]5(CC)[C@@H]6C[C@@H]6CN6CC[C@]43[C@@H]65)C2)C1 | Yes
O=C1C=CC(=O)N1CCCCCCCCCCN1C(=O)C=CC1=O | No
CN(C)CCOc1cccc(NC2=C(Cl)C(=O)C(Nc3cccc(OCCN(C)C)c3)=C(Cl)C2=O)c1 | No
COc1cc2c(cc1C)NC(=O)/C2=C/c1c(C)nc2sc(C)cn12 | No
COc1cc2c3c(n(CCCN4CCOCC4)c(=O)c2cc1OC)-c1cc2c(cc1C3=O)OCO2 | No
N#CC(C#N)=Cc1ccc(-c2ccc(-c3nc4ccccc4s3)cc2)s1 | No
COC(=O)/C(Br)=C/c1c[nH]c2ccc(Br)cc12 | No
Clc1cccc(Cc2cn3cc(-c4ccccc4)nc3s2)c1 | No

###

system: 786-0 renal; assay: NCI tumour cell line growth inhibition, 48 h
measurementLabel: GI50

compound | recordedMeasurement
COC(=O)/C(Br)=C/c1c[nH]c2ccc(Br)cc12 | 13 µM
COc1ccc2cc(C(=O)/C=C/c3ccccc3OC)ccc2c1 | 5.59 µM
CCOC(=O)c1c2c(n3cccc(F)c13)C(=O)c1ncccc1C2=O | 0.114 µM
Cc1cc(Cl)ccc1Nc1nc(C(F)(F)F)ccc1C(=O)N/N=C/c1ccc(F)cc1 | 1.45 µM
COc1ccc2c(c1)N(CCO)C1=C(C(=O)OC1)C2c1cccc(Br)c1 (stereo not drawn) | 0.12 µM
OCCCNC(=S)Nc1ccc(-c2nc3ccccc3s2)cc1 | 22.8 µM
COc1ccc(OC)c2c3c(ncc12)-c1cc2c(cc1C3)OCO2 | 22.5 µM
CC1=C(C(=O)Nc2ccc(Cl)c(Cl)c2)C(c2cccc(O)c2)NC(=S)N1 (stereo not drawn) | 9.47 µM
O=C(Nc1cccc2ccccc12)c1cc2ccccc2cc1O | 3.43 µM
O=C(CN/C=C\C(=O)c1cc(Cl)ccc1Cl)c1ccccc1 | 36.1 µM
COC(=O)C12OCC34C(CC5C(C)=CC(=O)C(O)C5(C)C3C(O)C1O)OC(=O)C(OC(=O)CC(C)C)C24 (stereo not drawn) | 0.0223 µM
Cn1cc(-c2nc(-c3cn(C)c4ncccc34)cs2)c2cc(F)ccc21 | 2.57 µM
Cc1cccc2c(=O)c3c(sc12)c(NCCN)nc1ccccc13 | 0.917 µM

Source of measurements: PubChem BioAssay (NCI)
